- Assay Protocol: self-splicing fitness, log relative to wild type (ln ratio); higher = more splicing; Tetrahymena group I intron in knt gene, E. coli kanamycin selection, DiMSum; sequences stand for … in CUCUCU…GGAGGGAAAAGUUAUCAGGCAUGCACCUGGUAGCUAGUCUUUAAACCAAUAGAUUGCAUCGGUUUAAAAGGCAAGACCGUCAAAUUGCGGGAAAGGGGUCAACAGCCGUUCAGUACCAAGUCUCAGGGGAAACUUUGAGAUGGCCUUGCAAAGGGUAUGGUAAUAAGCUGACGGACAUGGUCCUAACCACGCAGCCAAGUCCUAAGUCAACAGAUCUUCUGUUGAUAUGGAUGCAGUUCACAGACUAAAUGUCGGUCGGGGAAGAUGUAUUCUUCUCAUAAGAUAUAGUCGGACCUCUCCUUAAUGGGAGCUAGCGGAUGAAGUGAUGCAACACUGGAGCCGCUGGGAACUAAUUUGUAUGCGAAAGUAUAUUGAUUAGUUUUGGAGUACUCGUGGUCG;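 also: selection with 25 µg/mL kanamycin versus none on LB agar overnight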
- Recorded Conditions: 30 °C
Observed Property: self-splicing fitness (ln)
Respond with the number and no other words.

UAAGAGCAAUAUUACGCAUA :: -1.8
GACUAGCAAUAUUACGCAGG :: -3.04
AAUUAGCAAUAUUACGCUAA :: -2.5

Exercise: Which value of self-splicing fitness (ln) has been reported for GUGGAGCAAUAUUACGCUUG in the records?
Solution: -1.21

Exercise: GGGUAGCAAUAUUACGUAAG , same question.
Solution: -1.46

Exercise: Now the same for CUGGAGCAAUAUUACGUCGG
Solution: -3.08

Exercise: Here is the next sequence: GAUCAGCAAUAUUACGAAGC
Solution: -1.74

Exercise: Next entry: CGUCAGCAAUAUUACGGGAA
Solution: -3.68

* * *

- Assay Protocol: self-splicing fitness, log relative to wild type (ln ratio); higher = more splicing; Tetrahymena group I intron in knt gene, E. coli kanamycin selection, DiMSum; sequences stand for … in CUCUCU…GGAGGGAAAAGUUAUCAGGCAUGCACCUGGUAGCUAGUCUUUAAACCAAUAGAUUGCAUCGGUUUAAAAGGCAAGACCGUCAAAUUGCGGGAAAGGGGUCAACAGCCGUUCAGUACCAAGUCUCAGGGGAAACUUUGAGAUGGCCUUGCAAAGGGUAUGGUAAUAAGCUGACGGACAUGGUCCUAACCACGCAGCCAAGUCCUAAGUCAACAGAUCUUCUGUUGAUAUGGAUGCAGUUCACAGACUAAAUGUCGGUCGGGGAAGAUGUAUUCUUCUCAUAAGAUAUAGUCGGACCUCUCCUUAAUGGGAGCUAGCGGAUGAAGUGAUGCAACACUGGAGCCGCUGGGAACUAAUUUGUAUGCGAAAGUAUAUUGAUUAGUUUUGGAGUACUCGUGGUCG
- Recorded Conditions: 37 °C
The following sequences are shown together with reported self-splicing fitness (ln) values.
Answer field: number only, no words.

Example entries and their recorded answers appear below.
GCACAGCAAUAUUACGGUUC :: -0.0499
GGUCAGCAAUAUUACGAGUA :: -1.32
UCCUAGCAAUAUUACGCAUA :: -2.11
GAGAAGCAAUAUUACGGACG :: -0.528
AGCGAGCAAUAUUACGAGAU :: -2.15
AGUUAGCAAUAUUACGGAAU :: -2
ACACAGCAAUAUUACGAGGU :: -2.04
AUAUAGCAAUAUUACGAGCU :: -1.11

Exercise: Which self-splicing fitness (ln) value is on record for CGAUAGCAAUAUUACGGUAA ?
Solution: -1.8

Exercise: Subsequent entry: ACUAAGCAAUAUUACGCGCA
Solution: -0.518

Exercise: Can you handle UUUGAGCAAUAUUACGCAAG next?
Solution: -1.51

Exercise: Lookup UCAUAGCAAUAUUACGGUUG
Solution: -1.94

Exercise: Request: GAAUAGCAAUAUUACGCGAA
Solution: -1.96

Exercise: // same read-out, input: UGGGAGCAAUAUUACGCGAG
Solution: -2.26

Exercise: Entry AAGUAGCAAUAUUACGGGUC please
Solution: -2.84

Exercise: What would you report for UAAUAGCAAUAUUACGGGCC ?
Solution: -2.52

Exercise: Another sequence to look at: GGCGAGCAAUAUUACGCUUU
Solution: -1.22

Exercise: Then AGCUAGCAAUAUUACGAAUC ?
Solution: -1.56

Exercise: Likewise for AAGGAGCAAUAUUACGAGUG ?
Solution: -2.2

Exercise: How about GUUAAGCAAUAUUACGAAGG ?
Solution: -1.87

Exercise: Next record, please: CUGGAGCAAUAUUACGUUUA
Solution: -3.28

Exercise: Can you check ACUGAGCAAUAUUACGUUCU next?
Solution: -1.48

Exercise: Same question, CCUAAGCAAUAUUACGGGUG this time
Solution: -1.11

* * *

- Assay Protocol: self-splicing fitness, log relative to wild type (ln ratio); higher = more splicing; Tetrahymena group I intron in knt gene, E. coli kanamycin selection, DiMSum; sequences stand for … in CUCUCU…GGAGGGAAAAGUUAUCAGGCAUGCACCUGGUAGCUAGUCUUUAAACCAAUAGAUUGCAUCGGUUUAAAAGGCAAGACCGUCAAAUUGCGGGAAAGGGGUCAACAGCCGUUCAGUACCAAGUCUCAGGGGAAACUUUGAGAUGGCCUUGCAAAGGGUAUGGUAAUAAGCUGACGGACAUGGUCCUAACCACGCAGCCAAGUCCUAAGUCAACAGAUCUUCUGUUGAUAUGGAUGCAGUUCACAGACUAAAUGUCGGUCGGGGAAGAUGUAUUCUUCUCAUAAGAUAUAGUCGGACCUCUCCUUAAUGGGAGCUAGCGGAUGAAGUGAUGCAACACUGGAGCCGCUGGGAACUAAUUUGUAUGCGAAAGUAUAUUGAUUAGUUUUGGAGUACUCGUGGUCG
- Recorded Conditions: 30 °C
Observed Property: self-splicing fitness (ln)
# answer = number (no unit)

Exercise: Query: self-splicing fitness (ln); subject: GGGUAGCAAUAUUACGUAGC
Solution: -0.707

Exercise: Try this sequence too: UUUUAGCAAUAUUACGUUUA
Solution: -1.94

Exercise: Please give the result for CAUAAGCAAUAUUACGACAG too.
Solution: -0.32

Exercise: Proceed to AGCUAGCAAUAUUACGCCAG
Solution: -3.78

Exercise: Cool, now AUACAGCAAUAUUACGUGGC
Solution: -3.22

Exercise: // query: GCAGAGCAAUAUUACGUGUG
Solution: -2.07

* * *

- Assay Protocol: self-splicing fitness, log relative to wild type (ln ratio); higher = more splicing; Tetrahymena group I intron in knt gene, E. coli kanamycin selection, DiMSum; sequences stand for … in CUCUCU…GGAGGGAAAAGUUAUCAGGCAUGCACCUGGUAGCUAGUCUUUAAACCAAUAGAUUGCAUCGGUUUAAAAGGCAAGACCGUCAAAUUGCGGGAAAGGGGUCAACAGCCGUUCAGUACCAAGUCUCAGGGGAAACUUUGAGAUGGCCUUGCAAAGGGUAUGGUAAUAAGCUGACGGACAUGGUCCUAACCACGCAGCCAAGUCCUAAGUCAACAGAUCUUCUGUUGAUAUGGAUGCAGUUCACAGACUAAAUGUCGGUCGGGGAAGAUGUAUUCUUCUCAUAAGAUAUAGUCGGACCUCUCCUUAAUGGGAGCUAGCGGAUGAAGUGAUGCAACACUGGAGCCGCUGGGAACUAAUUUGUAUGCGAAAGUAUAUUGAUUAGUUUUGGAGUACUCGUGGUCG
- Recorded Conditions: 37 °C
Observed Property: self-splicing fitness (ln)

Please review the following examples before continuing.
ACAAAGCAAUAUUACGAGCG :: 0.57
AACAAGCAAUAUUACGUGCA :: -0.28
UGCCAGCAAUAUUACGUAGU :: -1.87
GGGAAGCAAUAUUACGCGCU :: -0.954

Exercise: // self-splicing fitness (ln) lookup, key: UCCUAGCAAUAUUACGAUUC
Solution: -2.2

Exercise: And what about the sequence CUGAAGCAAUAUUACGCGUA ?
Solution: -1.98

Exercise: Ok, now AUAUAGCAAUAUUACGGUAU
Solution: -1.45

Exercise: Also UUGCAGCAAUAUUACGAAGC , if possible.
Solution: -0.93

Exercise: Lookup GAUUAGCAAUAUUACGCGGA
Solution: -1.55

Exercise: How about CUAUAGCAAUAUUACGUGGU ?
Solution: -2.76

Exercise: Thanks! And CGUAAGCAAUAUUACGGUAU ?
Solution: -2.56

Exercise: Consider next the sequence AGAGAGCAAUAUUACGCUUA in the same way.
Solution: -1.32

Exercise: And what about the sequence GGAGAGCAAUAUUACGUUCU ?
Solution: -3.5

Exercise: Likewise for CAAAAGCAAUAUUACGACCA ?
Solution: -1.48

These data points were gathered from the supplement of paper PMC7877785.
